Data origin, for the record: patent US20150086555A1

Biological target: recombinant homotrimeric HA A/Hong Kong/156/97 H5N1 (Influenza A virus A/Hong Kong/156/97 (H5N1))
Assay: protein microarray, purified IgG, trimeric HA
Conditions: remark: other sources report otherwise
Below: a set of entries, each annotated with reported Trimeric HA Binding: RLU.
Please respond with the number in RLU and leave the unit unwritten.

# example entries with known answers
binder	assayValue
TCN-546 (5089_L08) (antibody, V domains shown) VH: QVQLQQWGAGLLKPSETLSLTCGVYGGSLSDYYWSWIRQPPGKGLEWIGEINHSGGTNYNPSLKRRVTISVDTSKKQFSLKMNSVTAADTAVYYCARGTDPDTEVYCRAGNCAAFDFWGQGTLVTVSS VL: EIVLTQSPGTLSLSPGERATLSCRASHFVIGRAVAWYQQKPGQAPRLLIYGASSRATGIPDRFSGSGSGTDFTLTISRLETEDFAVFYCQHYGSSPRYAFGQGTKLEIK	890
TCN-535 (5246_P19) (antibody, V domains shown) VH: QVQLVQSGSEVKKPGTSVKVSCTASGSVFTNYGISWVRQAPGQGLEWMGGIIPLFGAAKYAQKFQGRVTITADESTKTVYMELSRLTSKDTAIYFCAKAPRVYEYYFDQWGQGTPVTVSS VL: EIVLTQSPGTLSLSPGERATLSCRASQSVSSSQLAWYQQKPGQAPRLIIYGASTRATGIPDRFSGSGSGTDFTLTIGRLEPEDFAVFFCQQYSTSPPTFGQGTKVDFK	13200

Trimeric HA Binding: RLU measured on TCN-538 (3206_O17) (antibody, V domains shown) VH: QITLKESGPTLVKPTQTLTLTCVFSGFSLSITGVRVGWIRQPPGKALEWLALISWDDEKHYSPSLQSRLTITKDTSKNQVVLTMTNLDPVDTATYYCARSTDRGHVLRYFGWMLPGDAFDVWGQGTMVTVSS VL: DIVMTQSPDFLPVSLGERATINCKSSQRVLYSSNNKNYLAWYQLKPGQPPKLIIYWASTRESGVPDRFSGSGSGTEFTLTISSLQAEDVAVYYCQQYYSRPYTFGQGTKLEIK = 7080
